Recorded measurements of viability, one per entry
# test-method-notes: SK-BR-3 cell growth inhibitors, pilot screen, 24 h, human (AID 572);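 note: compound exposure lasted between 18 and 24 h rather than exactly 24 h; 100% = carrier-treated control wells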
# experimental-conditions: SK-BR-3 viability, CellTiter-Glo luminescence, at 10 µM, stronger effect = lower value
Square brackets hold non-standard residues; d marks the D form. Peptide text beside a SMILES is read from it. ξ: configuration not given here. ξV = CC(C)C(N)C(=O)O
outcome-measure: viability (%)

[[record]]
molecule = "CN(C)/C=C(\\C#N)c1nc2ccccc2[nH]1"
recorded_number = 85

[[record]]
molecule = "CCOC(=O)C1CCN(C(=O)c2ccc(Cl)c(Cl)c2)CC1"
recorded_number = 75.5

[[record]]
molecule = "CCOC(=O)N1CCN(C(=O)CSc2nnc(-c3cc(OC)cc(OC)c3)o2)CC1"
recorded_number = 86.5

[[record]]
molecule = "COC(=O)c1ccccc1NC(=O)C1CC(=O)N(c2ccc(F)cc2)C1 (stereo not drawn)"
recorded_number = 121

[[record]]
molecule = "CC(NC(=O)COc1ccc(Br)cc1)C(=O)O (stereo not drawn)"
recorded_number = 108

[[record]]
molecule = "O=C(CC(C(=O)N1CCc2ccccc21)n1ccnc1)NCc1cccnc1 (stereo not drawn)"
recorded_number = 100

[[record]]
molecule = "CCOC(=O)c1c(N)sc(C(=O)N2CCOCC2)c1C"
recorded_number = 127

[[record]]
molecule = "CN(C(=O)c1ccc2c(=O)n3c(nc2c1)CCCCC3)c1ccccc1"
recorded_number = 96.5

[[record]]
molecule = "CCOC(=O)Nc1ccc(OC)cc1S(=O)(=O)N1CCCCC1"
recorded_number = 88.5

[[record]]
molecule = "CCOC(=O)C1CCN(c2c(Nc3ccc4c(c3)OCCO4)c(=O)c2=O)CC1"
recorded_number = 82.5

[[record]]
molecule = "Cc1cc(C)c2c(n1)nn1c(C3CC3)cc(C(F)(F)F)nc21"
recorded_number = 106

[[record]]
molecule = "Cc1nn(C)c(C)c1S(=O)(=O)N1CCCC(C(=O)N2CCN(c3ccc(Cl)cc3)CC2)C1 (stereo not drawn)"
recorded_number = 102

[[record]]
molecule = "O=c1[nH]c(NCc2ccco2)nnc1Cc1ccccc1Cl"
recorded_number = 96.5

[[record]]
molecule = "COc1ccc(-c2nnc(SCC(=O)Nc3ccc(Cl)cc3)n2C)cc1"
recorded_number = 82.5

[[record]]
molecule = "c1ccc2c(CC3=NCCN3)cccc2c1"
recorded_number = 101

[[record]]
molecule = "O=C(Nc1ccccc1C(F)(F)F)c1cc(S(=O)(=O)N2CCOCC2)ccc1F"
recorded_number = 96.5

[[record]]
molecule = "COC(=O)c1[nH]c2cc(OC)ccc2c1NC(=O)CCN1CCCCC1"
recorded_number = 85

[[record]]
molecule = "CN1CCN2c3ccccc3Cc3ccccc3C2C1 (stereo not drawn)"
recorded_number = 82.5

[[record]]
molecule = "COc1cccc(NC(=O)Cc2nnc(SCC(=O)c3ccccc3)n2C)c1"
recorded_number = 92

[[record]]
molecule = "CCOC(=O)c1c(NC(=O)CSc2nnc(-c3cccnc3)o2)sc(C)c1C"
recorded_number = 120

[[record]]
molecule = "NS(=O)(=O)c1cc2c(cc1C(F)(F)F)NC(Cc1ccccc1)NS2(=O)=O (stereo not drawn)"
recorded_number = 106

[[record]]
molecule = "CC(=O)NC(C(=O)NCC(N)=O)C(C)C (stereo not drawn) (Ac-[ξV]-Gly-NH2)"
recorded_number = 90

[[record]]
molecule = "CCC1(C)Cc2c(C#N)c(N)n(N)c(=S)c2CO1 (stereo not drawn)"
recorded_number = 102

[[record]]
molecule = "Cc1ccc(S(=O)(=O)N2CCOCC2)cc1C(=O)Nc1ccccn1"
recorded_number = 87

[[record]]
molecule = "CCCn1c2ccccc2c2nnc(SCC(=O)Nc3ncccn3)nc21"
recorded_number = 105

[[record]]
molecule = "COC(=O)c1ccc(CNC(=O)COc2ccccc2Br)o1"
recorded_number = 93

[[record]]
molecule = "Cc1cc(NC(=O)C23CCC(C)(c4nc5cc(Cl)c(Cl)cc5nc42)C3(C)C)no1 (stereo not drawn)"
recorded_number = 124

[[record]]
molecule = "O=C(NC(C(=O)c1ccccc1)n1ccc(=O)[nH]c1=O)c1ccccc1 (stereo not drawn)"
recorded_number = 98.5

[[record]]
molecule = "CCCC(=O)Nc1nnc(CC(=O)OCC)s1"
recorded_number = 111

[[record]]
molecule = "CCc1ccc(CNCc2cccnc2)cc1"
recorded_number = 91

[[record]]
molecule = "CC(=O)Oc1ccc(CCC(C)OC(C)=O)cc1 (stereo not drawn)"
recorded_number = 101

[[record]]
molecule = "O=C(COc1ccccc1)Nc1nc2ccccc2[nH]1"
recorded_number = 91.5

[[record]]
molecule = "CCOC(=O)c1ccc(N2C(=O)CC(N(C)CCc3ccc(OC)c(OC)c3)C2=O)cc1 (stereo not drawn)"
recorded_number = 102

[[record]]
molecule = "O=C1c2ccccc2C(=O)N1CNc1ccccc1"
recorded_number = 96.5

[[record]]
molecule = "Nc1nc2sc3c(c2c(=O)s1)CCCC3"
recorded_number = 112

[[record]]
molecule = "CC1(C)CC(=O)C(C(=O)CCCCC(=O)C2C(=O)CC(C)(C)CC2=O)C(=O)C1"
recorded_number = 99.5

[[record]]
molecule = "COC(=O)c1ccccc1NC(=O)Cn1ccnc1"
recorded_number = 110

[[record]]
molecule = "COC(=O)CC1SCCNC1=O (stereo not drawn)"
recorded_number = 92

[[record]]
molecule = "O=c1sc(Nc2ccccc2)nc2ccsc12"
recorded_number = 96.5

[[record]]
molecule = "C=CCn1c(C)cc(C(=O)CSc2nc3ccccc3o2)c1C"
recorded_number = 108

[[record]]
molecule = "COc1ccc(C(=O)OC(COc2ccccc2)Cn2ccnc2)cc1 (stereo not drawn)"
recorded_number = 83

[[record]]
molecule = "CCOC(=O)c1ccc(NC(=O)CSCc2ccco2)cc1"
recorded_number = 108

[[record]]
molecule = "COc1ccccc1N1CCN(C(=O)C(Cc2ccccc2)NC(=O)C2CCCCC2)CC1 (stereo not drawn)"
recorded_number = 73.5

[[record]]
molecule = "Cc1ccc(NC(=O)CCC(=O)O)cc1F"
recorded_number = 106

[[record]]
molecule = "CC1(C)CC(=O)c2cnc(NCc3ccco3)nc2C1"
recorded_number = 99

[[record]]
molecule = "O=C(NCc1ccc(F)cc1)C1CCN(C(=O)NCc2ccccc2)CC1"
recorded_number = 115

[[record]]
molecule = "CC(=O)OCC(=O)c1ccc2ccn(C(C)=O)c2c1"
recorded_number = 106

[[record]]
molecule = "CC12CN3CC(C)(CN(C1)C3c1ccc(Br)cc1)C2 (stereo not drawn)"
recorded_number = 99

